# experimental protocol: Elimination half life in male ICR mouse pancreas at 10 mg/kg, iv measured up to 336 hrs by LC-MS/MS analysis
# Format: ADME, organism-based
# experimental parameters: read-out: beta t1/2 (converted)
endpoint label: half-life (days)
Report the value in days with no unit label.

Any idea what its half-life is? The compound is C#Cc1c(F)ccc2cc(O)cc(-c3ncc4c(N5CC6CCC(C5)N6)nc(OCC5(CN6CCC7(CC6)CC(N6CCC(c8cc9c(cc8F)c(N8CCC(=O)NC8=O)nn9C)CC6)C7)CC5)nc4c3F)c12
13.8

====

# experimental protocol: Metabolic stability in human liver microsomes assessed as intrinsic clearance at 1 uM preincubated for 3 mins with NADPH and measured up to 60 mins by LC-MS/MS analysis
# Assay type: ADME, Microsome
# experimental parameters: time < 63 min, read-out: CLH
endpoint label: CLint scaled at 1 µM
Just the number plus its unit, please.

Any idea what its CLint scaled at 1 µM is? The compound is C#Cc1c(F)ccc2cc(O)cc(-c3ncc4c(N5CC6CCC(C5)N6)nc(OCC5(CN6CCC7(CC6)CC(N6CCC(c8cc9c(cc8F)c(N8CCC(=O)NC8=O)nn9C)CC6)C7)CC5)nc4c3F)c12
8.1 mL/min/kg

====

# experimental protocol: Elimination half life in male ICR mouse lung at 10 mg/kg, iv measured up to 336 hrs by LC-MS/MS analysis
# Format: ADME, organism-based
# experimental parameters: read-out: beta t1/2 (converted)
endpoint label: half-life (h)
Report the value in h with no unit label.

Any idea what its half-life is? The molecule is C#Cc1c(F)ccc2cc(O)cc(-c3ncc4c(N5CC6CCC(C5)N6)nc(OCC5(CN6CCC7(CC6)CC(N6CCC(c8cc9c(cc8F)c(N8CCC(=O)NC8=O)nn9C)CC6)C7)CC5)nc4c3F)c12
105

====

# experimental protocol: Half life in male Sprague-Dawley rat at 1 mg/kg, iv measured up to 24 hrs by LC-MS/MS analysis
# Type: ADME, organism-based
# experimental parameters: in vivo
endpoint label: half-life (min)
Report the value in min with no unit label.

Any idea what its half-life is? The compound is C#Cc1c(F)ccc2cc(O)cc(-c3ncc4c(N5CC6CCC(C5)N6)nc(OCC5(CN6CCC7(CC6)CC(N6CCC(c8cc9c(cc8F)c(N8CCC(=O)NC8=O)nn9C)CC6)C7)CC5)nc4c3F)c12
578

====

# experimental protocol: Stability in rat plasma assessed as half life at 1 uM measured up to 120 mins by LC-MS/MS analysis
# Format: ADME, cell-free
endpoint label: half-life at 1 µM (h)
Report the value in h with no unit label.

Any idea what its half-life at 1 µM is? The compound is C#Cc1c(F)ccc2cc(O)cc(-c3ncc4c(N5CC6CCC(C5)N6)nc(OCC5(CN6CCC7(CC6)CC(N6CCC(c8cc9c(cc8F)c(N8CCC(=O)NC8=O)nn9C)CC6)C7)CC5)nc4c3F)c12
12.8

====

# experimental protocol: Half life in male Beagle dog at 1 mg/kg, iv measured up to 24 hrs by LC-MS/MS analysis
# Format: ADME, organism-based, Canis lupus familiaris
# experimental parameters: in vivo
endpoint label: half-life (h)
Report the value in h with no unit label.

Any idea what its half-life is? The compound is C#Cc1c(F)ccc2cc(O)cc(-c3ncc4c(N5CC6CCC(C5)N6)nc(OCC5(CN6CCC7(CC6)CC(N6CCC(c8cc9c(cc8F)c(N8CCC(=O)NC8=O)nn9C)CC6)C7)CC5)nc4c3F)c12
15.6
